Tested on: KM20L2 colon
ASSAY PROCEDURE: NCI tumour cell line growth inhibition, 48 h
TGI listing for selected compounds.

COMPOUND	TGI
O=c1cc(-c2ccccc2)oc2ccc(Cl)cc12	> 100 µM
Nc1nc(SCc2ccccc2Cl)c2ncn(C3OC(CO)C(O)C3O)c2n1 (stereo not drawn)	> 100 µM

Read the next record carefully.
Looking up Nc1nc(Cl)c2ncn(CCCC(c3ccccc3)P(=O)(O)O)c2n1 (stereo not drawn) , I found its TGI recorded as > 100 µM

----------
TGI listing for selected compounds.
System: ACHN renal
ASSAY PROCEDURE: NCI tumour cell line growth inhibition, 48 h

Examples with answers:
COMPOUND	OBSERVED
COc1ccc(/C=C/C(=O)c2c(-c3ccccc3)nn(C)c(=O)c2N2CC2C)cc1 (centres undefined)	> 100 µM
O=[N+]([O-])c1ccccc1N=Nc1c(O)[nH]c2c(Cl)cccc12	> 45.8 µM
Cc1ccc(C)c2c1C1CCCCC3(OCCCO3)C21O (centres undefined)	> 100 µM

Read the next record carefully.
Looking up NC(=S)NNCC(=O)CC(O)(C(F)(F)F)C(F)(F)Cl (centres undefined) , I found its TGI recorded as > 100 µM

----------
TGI listing for selected compounds.
System: COLO 205 colon
ASSAY PROCEDURE: NCI tumour cell line growth inhibition, 48 h

COMPOUND	STUDY SYSTEM	TGI
O=C(NNC(=O)c1ccco1)c1ccco1	COLO 205 colon	> 100 µM

# value of TGI, COLO 205 colon, item C[N+](C)(CCNc1ccc(NCC[N+](C)(C)Cc2ccc([N+](=O)[O-])cc2)c2c1C(=O)c1c(O)ccc(O)c1C2=O)Cc1ccc([N+](=O)[O-])cc1 = > 50 µM

# value of TGI, COLO 205 colon, item Cc1ccc(/C=c2\cc3oc(=O)c4cccc(c4-3)c2=O)cc1 = > 100 µM

# value of TGI, COLO 205 colon, item CCOC(=O)C(O)(CC1=NC(C(=O)OC)(C(=O)OC)C(c2cccc(C=O)c2)O1)C(=O)OCC (stereo unspecified) = > 100 µM

# value of TGI, COLO 205 colon, item COc1cc(C2CC(c3ccccc3)=NN2C=O)ccc1Oc1ccnc2cc(Cl)ccc12 (stereo unspecified) = > 100 µM

# value of TGI, COLO 205 colon, item CN(C(=O)Cc1ccccc1)n1cn[n+](CC(=O)OC(C)(C)C)c1 = > 10 µM

----------
Test system: HT29 colon
ASSAY PROCEDURE: NCI tumour cell line growth inhibition, 48 h
ENDPOINT LABEL: TGI

Examples with answers:
COMPOUND	STUDY SYSTEM	TGI
COC(=O)C1=NC(=S)NC(c2ccccc2)C1c1nc2ccccc2o1 (stereo not drawn)	HT29 colon	> 50 µM
CCOc1ccc(NC(=O)CC2SC(=Nc3ccc(C)cc3)NC2=O)cc1 (stereo not drawn)	HT29 colon	> 100 µM

Looking up N#C[S-].[La+3].c1ccc(-c2ccccn2)nc1.c1ccc(-c2ccccn2)nc1.c1ccc(-c2ccccn2)nc1 , I found its TGI recorded as > 100 µM

----------
Test system: DMS 114 small cell lung
ASSAY PROCEDURE: NCI tumour cell line growth inhibition, 48 h
ENDPOINT LABEL: TGI (µM)
Supply the numeric figure in µM, leaving out any unit text.

COMPOUND SMILES	TGI [µM]
N#C[S-].[La+3].c1ccc(-c2ccccn2)nc1.c1ccc(-c2ccccn2)nc1.c1ccc(-c2ccccn2)nc1	97.2

Looking up COc1ccc(/C=C/C(=N\NC(=O)c2ccccc2)c2sc(Nc3ccc([N+](=O)[O-])cc3)nc2C)cc1OC , I found its TGI recorded as 62.7
